STUDY_SYSTEM: T1, WRN helicase core (WRN512-1213) (Gallus gallus, UniProt D3KR65 512-1213)
T1 sequence: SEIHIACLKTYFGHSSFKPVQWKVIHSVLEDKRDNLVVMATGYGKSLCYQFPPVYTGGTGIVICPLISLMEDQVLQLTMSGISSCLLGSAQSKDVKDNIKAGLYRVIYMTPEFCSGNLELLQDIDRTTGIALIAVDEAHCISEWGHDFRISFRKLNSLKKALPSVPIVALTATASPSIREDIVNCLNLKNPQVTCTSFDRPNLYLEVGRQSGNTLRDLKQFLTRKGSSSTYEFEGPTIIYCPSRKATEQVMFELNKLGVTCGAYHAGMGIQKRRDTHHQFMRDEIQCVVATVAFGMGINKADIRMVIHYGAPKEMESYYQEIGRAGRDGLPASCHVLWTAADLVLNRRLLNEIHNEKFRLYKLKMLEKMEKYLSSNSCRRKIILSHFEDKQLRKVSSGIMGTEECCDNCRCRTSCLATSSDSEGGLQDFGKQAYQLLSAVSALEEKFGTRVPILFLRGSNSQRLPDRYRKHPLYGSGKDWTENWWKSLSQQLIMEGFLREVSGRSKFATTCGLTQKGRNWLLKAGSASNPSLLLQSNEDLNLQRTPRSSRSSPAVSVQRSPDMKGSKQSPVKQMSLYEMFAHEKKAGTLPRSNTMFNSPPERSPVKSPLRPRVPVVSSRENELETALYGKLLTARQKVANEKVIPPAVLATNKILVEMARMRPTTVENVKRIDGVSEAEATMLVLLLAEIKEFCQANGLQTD
ASSAY_PROCEDURE: fluorescence polarization anisotropy; 5 mM Mg2+; no nucleotide stated; Hill coefficient 2; 20 mM Tris-HCl pH 8.0, 50 mM KCl, 5 mM MgCl2, 5 nM DNA, 25 C, 5 min equilibration
STATED_CONDITIONS: protein: recombinant; tags: 6xHis-SUMO at N-terminus, cleaved with Ulp; label: fluorescein (FAM), position by colour only; blunt

# BINDER, READOUT_UNIT, Kd
data = [
    ("16bp-FAM (dsDNA) DNA 1: CTCTGCTCGACGGATT DNA 2: AATCCGTCGAGCAGAG", "nM", 32.2),
]
